Each record here notes measured pIC50.
Target: androgen receptor (AR) (Homo sapiens, UniProt P10275, T878A)
Construct: LNCaP cells were transiently transfected with the PSA (6.1 kb)-luciferase reporter for 24 h; endogenous in cells; host or cells: LNCaP
Sequence (P10275 whole entry T878A): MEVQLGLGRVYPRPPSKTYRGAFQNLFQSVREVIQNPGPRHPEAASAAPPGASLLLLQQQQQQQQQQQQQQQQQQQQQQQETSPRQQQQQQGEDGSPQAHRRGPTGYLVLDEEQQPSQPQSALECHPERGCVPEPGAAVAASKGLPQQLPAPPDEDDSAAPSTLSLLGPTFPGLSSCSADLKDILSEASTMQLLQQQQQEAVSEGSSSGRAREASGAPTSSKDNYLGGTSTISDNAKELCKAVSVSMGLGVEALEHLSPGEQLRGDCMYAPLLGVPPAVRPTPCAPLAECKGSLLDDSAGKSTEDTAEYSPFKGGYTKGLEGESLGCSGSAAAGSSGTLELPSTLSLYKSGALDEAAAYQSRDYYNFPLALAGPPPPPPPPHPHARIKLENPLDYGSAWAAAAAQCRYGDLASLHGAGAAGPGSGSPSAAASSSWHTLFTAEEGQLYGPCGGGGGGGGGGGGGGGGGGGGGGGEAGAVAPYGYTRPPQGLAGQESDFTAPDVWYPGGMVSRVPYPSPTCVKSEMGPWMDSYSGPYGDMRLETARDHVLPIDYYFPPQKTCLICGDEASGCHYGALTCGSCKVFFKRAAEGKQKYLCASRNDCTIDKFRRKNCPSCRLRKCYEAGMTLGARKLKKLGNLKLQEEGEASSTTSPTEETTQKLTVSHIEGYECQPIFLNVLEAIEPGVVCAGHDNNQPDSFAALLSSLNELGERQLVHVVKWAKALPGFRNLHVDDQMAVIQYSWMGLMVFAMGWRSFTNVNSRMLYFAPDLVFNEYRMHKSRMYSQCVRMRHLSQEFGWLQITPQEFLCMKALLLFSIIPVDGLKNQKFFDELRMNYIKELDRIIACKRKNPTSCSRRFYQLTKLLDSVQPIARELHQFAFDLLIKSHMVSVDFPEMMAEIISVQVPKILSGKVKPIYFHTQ
Assay: Androgen-induced PSA (6.1 kb)-luciferase reporter assay in LNCaP cells
Format: cell-based
Details: LNCaP cells transfected with PSA (6.1 kb)-luciferase reporter, R1881 1 nM, 24 h; read-out: PSA-Luc IC50 Range
pIC50: −log10 of the molar value.

CC(C)(c1ccc(OCc2nccnc2NS(C)(=O)=O)cc1)c1cc(Cl)c(OCCCl)c(C#N)c1 [Compound A103] :: > 6.30
CC(C)S(=O)(=O)c1nc(COc2ccc(C(C)(C)c3cc(Cl)c(OCCCl)c(C#N)c3)cc2)co1 [Compound A125] :: > 6.30

Value of pIC50 reported for the molecule CC(C)(c1ccc(OCc2ocnc2C(N)=O)cc1)c1cc(Cl)c(OCCCl)c(Cl)c1 [Compound A45] is 5.70 to 6.30

Value of pIC50 reported for the molecule CSc1ncc(COc2ccc(C(C)(C)c3cc(Cl)c(OCCCl)c(Cl)c3)cc2)o1 [Compound A111] is > 6.30

Value of pIC50 reported for the molecule CC(Oc1ccc(C(C)(C)c2cc(Cl)c(OCCCl)c(Cl)c2)cc1)c1[nH]cnc1S(C)(=O)=O (stereo not drawn) [Compound A116] is 5.70 to 6.30

Value of pIC50 reported for the molecule CC(C)(c1ccc(OCc2cccc(NS(C)(=O)=O)n2)cc1)c1cc(Cl)c(OCCCl)c(C#N)c1 [Compound A194] is 5.70 to 6.30

Value of pIC50 reported for the molecule CC(C)(c1ccc(OCc2nc(NS(C)(=O)=O)nc3c2CCC3)cc1)c1cc(Cl)c(OCCCl)c(C#N)c1 [Compound A202] is 5.70 to 6.30

Value of pIC50 reported for the molecule COC(=O)Nc1nc(COc2ccc(C(C)(C)c3cc(Cl)c(OCCCl)c(C#N)c3)cc2)co1 [Compound A156] is > 6.30

Value of pIC50 reported for the molecule CC(C)(c1ccc(OCCCl)c(Cl)c1)c1ccc(OCc2ocnc2S(C)(=O)=O)c(C#N)c1 [Compound A62] is < 5.70

Value of pIC50 reported for the molecule CC(C)(c1ccc(OCc2ocnc2S(C)(=O)=O)cc1)c1cc(Cl)c(OCCCl)c(C#N)c1 [Compound A28] is > 6.30

Value of pIC50 reported for the molecule Cc1nc(N)cc(COc2ccc(C(C)(C)c3cc(Cl)c(OCCCl)c(C#N)c3)cc2)n1 [Compound A162] is > 6.30

Value of pIC50 reported for the molecule CC(C)(c1ccc(C(=O)Nc2ccnc(NS(C)(=O)=O)n2)cc1)c1cc(Cl)c(OCCCl)c(Cl)c1 [Compound A189] is 5.70 to 6.30

Value of pIC50 reported for the molecule Cc1nc(-c2ccc(C(C)(C)c3cc(Cl)c(OCCCCl)c(Cl)c3)cc2)co1 [Compound A64] is < 5.70

Value of pIC50 reported for the molecule CC(C)(c1ccc(OCc2nc(S(C)(=O)=O)cs2)cc1)c1cc(Cl)c(OCCCl)c(C#N)c1 [Compound A136] is 5.70 to 6.30

Value of pIC50 reported for the molecule CC(C)(c1ccc(OCc2nc(C#N)cs2)cc1)c1cc(Cl)c(OCCCl)c(C#N)c1 [Compound A172] is > 6.30

Value of pIC50 reported for the molecule CC(Oc1ccc(C(C)(C)c2cc(Cl)c(OCCCl)c(C#N)c2)cc1)c1ncc(S(C)(=O)=O)o1 (stereo not drawn) [Compound A90] is 5.70 to 6.30

Value of pIC50 reported for the molecule CC(C)(c1ccc(OCc2ccnc(NS(C)(=O)=O)n2)cc1)c1cc(Cl)c(OCCCl)c(C#N)c1 [Compound A109] is 5.70 to 6.30

Value of pIC50 reported for the molecule CC(C)(c1ccc(OCCCl)c(C#N)c1)c1ccc(OCc2ocnc2S(C)(=O)=O)c(C#N)c1 [Compound A63] is 5.70 to 6.30

Value of pIC50 reported for the molecule CC(C)(c1ccc(OCc2cnc(S(C)(=O)=O)o2)cc1)c1cc(Cl)c(OCCCl)c(Cl)c1 [Compound A57] is > 6.30

Values compiled from patent US11059795B2.
